The reported measurements were obtained from ChEMBL document CHEMBL3813682.

# STUDY_TARGET: CREB-binding protein (Homo sapiens, UniProt Q92793)
# Sequence (Q92793 whole entry): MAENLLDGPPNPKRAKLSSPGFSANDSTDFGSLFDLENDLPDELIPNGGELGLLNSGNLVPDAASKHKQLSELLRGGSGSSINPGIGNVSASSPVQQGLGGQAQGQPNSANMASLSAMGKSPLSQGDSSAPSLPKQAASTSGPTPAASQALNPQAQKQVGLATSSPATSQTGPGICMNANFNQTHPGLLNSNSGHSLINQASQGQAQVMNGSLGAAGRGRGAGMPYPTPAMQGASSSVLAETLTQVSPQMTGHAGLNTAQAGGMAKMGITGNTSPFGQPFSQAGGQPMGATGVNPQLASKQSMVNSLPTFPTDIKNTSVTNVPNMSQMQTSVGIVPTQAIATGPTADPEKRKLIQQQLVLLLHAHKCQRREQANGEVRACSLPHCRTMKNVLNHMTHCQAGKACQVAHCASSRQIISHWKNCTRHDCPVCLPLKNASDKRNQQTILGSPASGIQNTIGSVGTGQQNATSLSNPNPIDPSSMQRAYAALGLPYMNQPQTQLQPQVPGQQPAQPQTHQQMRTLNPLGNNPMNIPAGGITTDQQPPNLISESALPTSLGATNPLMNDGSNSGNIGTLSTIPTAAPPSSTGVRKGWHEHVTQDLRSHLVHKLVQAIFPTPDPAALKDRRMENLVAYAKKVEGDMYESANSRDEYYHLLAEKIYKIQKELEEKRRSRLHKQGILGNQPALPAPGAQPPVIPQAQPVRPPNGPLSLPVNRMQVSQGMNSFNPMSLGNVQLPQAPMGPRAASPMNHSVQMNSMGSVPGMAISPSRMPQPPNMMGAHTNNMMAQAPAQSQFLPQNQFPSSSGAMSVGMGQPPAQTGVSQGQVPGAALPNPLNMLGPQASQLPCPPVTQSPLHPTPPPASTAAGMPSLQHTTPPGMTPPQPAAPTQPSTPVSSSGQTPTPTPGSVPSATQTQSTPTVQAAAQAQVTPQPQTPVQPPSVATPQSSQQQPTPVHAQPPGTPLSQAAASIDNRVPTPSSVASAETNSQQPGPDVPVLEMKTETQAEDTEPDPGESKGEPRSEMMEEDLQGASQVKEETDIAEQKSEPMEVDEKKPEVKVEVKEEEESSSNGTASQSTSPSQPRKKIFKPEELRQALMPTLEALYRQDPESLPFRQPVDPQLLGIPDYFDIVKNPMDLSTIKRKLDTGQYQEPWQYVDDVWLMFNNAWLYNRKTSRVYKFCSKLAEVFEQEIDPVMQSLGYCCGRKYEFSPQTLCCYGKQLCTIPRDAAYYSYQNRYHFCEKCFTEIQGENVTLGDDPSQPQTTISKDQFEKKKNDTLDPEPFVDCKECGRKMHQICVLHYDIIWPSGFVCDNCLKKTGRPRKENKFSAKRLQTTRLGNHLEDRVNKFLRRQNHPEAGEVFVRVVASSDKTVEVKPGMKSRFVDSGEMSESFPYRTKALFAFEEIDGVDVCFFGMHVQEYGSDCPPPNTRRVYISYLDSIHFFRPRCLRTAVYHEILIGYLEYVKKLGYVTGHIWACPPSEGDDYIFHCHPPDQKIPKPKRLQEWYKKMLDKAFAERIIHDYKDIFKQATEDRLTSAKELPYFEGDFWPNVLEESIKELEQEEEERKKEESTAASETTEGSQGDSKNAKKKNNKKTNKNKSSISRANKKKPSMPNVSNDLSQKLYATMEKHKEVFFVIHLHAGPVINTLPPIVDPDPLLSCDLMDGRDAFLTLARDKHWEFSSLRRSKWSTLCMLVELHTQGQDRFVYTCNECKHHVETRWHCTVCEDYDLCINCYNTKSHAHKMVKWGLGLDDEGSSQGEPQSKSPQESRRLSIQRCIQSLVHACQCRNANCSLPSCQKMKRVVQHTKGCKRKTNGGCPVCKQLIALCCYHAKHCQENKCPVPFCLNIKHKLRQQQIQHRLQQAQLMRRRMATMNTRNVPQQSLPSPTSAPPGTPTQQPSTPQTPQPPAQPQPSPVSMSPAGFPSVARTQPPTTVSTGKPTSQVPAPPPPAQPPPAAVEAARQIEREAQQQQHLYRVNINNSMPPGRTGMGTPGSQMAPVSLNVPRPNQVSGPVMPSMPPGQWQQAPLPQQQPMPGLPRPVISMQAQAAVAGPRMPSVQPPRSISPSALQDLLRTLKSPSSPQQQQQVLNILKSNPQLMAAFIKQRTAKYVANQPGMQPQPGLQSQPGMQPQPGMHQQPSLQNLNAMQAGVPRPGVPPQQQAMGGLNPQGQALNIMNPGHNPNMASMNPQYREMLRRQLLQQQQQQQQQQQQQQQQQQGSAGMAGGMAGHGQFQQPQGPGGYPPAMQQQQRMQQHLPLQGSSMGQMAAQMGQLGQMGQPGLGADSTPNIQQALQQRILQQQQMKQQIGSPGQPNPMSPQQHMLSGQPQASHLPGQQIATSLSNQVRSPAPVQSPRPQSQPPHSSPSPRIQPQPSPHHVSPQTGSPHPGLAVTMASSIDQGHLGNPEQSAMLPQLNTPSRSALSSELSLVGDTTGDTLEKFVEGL
# EXPERIMENT_DESCRIPTION: Displacement of biotinylated ligand from recombinant His-tagged CBP (unknown origin) incubated for 10 mins by TR-FRET assay
# log10 IC50 per record follows
A value of 2 here means IC50 of 100 in nM, since values are log10.

The examples below pair each entry with its known result.
LINE_NOTATION: CC[C@@H](NC(=O)c1cccc2c1N[C@H](C)CC(=O)N2)c1cnco1
PROPERTY_NAME: log10 IC50
MEASURED_VALUE: 2.79
--
LINE_NOTATION: C[C@@H]1CC(=O)Nc2cccc(-c3ccc4c(c3)c(C(N)=O)nn4C)c2N1
PROPERTY_NAME: log10 IC50
MEASURED_VALUE: 1.89
--
LINE_NOTATION: CC[C@@H]1CC(=O)Nc2ccccc2N1
PROPERTY_NAME: log10 IC50
MEASURED_VALUE: 5.08

What does the record list as log10 IC50 for "C[C@@H]1CC(=O)Nc2ccc(O[C@H](C)c3ccccc3)cc2N1" ?
3.61

Quick one: log10 IC50 of "C[C@@H]1CC(=O)Nc2cccc(-c3cccc(OCc4ccccc4)c3)c2N1" ?
2.04
